system: Enterococcus faecium; assay: Antibacterial activity against Enterococcus faecium 08-2 after 18 to 24 hrs by NCCLS M100-S11 two fold serial dilution method; type: functional
readout.kind: MIC

Examples with their reported MIC follow.
- COc1c(N2CCN(O)C(C)C2)c(F)cc2c(=O)c(C(=O)O)cn(C3CC3)c12 (stereo unspecified): 16 µg/mL
- COc1c(N2CCN(CCC(C)=O)C(C)C2)c(F)cc2c(=O)c(C(=O)O)cn(C3CC3)c12 (stereo unspecified): 4 µg/mL
- C[C@H]1COc2c(N3CCN(C)CC3)c(F)cc3c(=O)c(C(=O)O)cn1c23.C[C@H]1COc2c(N3CCN(C)CC3)c(F)cc3c(=O)c(C(=O)O)cn1c23.O: 4 µg/mL
- CCO/N=C(\C)CN1CCN(c2c(F)cc3c(=O)c(C(=O)O)cn(C4CC4)c3c2OC)CC1C (stereo unspecified): > 128 µg/mL
- CO/N=C(\C)CCN1CCN(c2c(F)cc3c(=O)c(C(=O)O)cn(C4CC4)c3c2OC)CC1C (stereo unspecified): > 128 µg/mL

Moving on to the next molecule.
MIC lookup needed for COc1c(N2CCN(CC#N)C(C)C2)c(F)cc2c(=O)c(C(=O)O)cn(C3CC3)c12 (stereo unspecified) , thanks.
8 µg/mL

----------
tested on: Streptococcus pneumoniae; assay: Antibacterial activity against Streptococcus pneumoniae 08-2 after 18 to 24 hrs by NCCLS M100-S11 two fold serial dilution method; assay type: functional
readout.kind: MIC (µg/mL)
I only need the number, in µg/mL, no unit after it.

• COc1c(N2CCN(C/C(C)=N/O)C(C)C2)c(F)cc2c(=O)c(C(=O)O)cn(C3CC3)c12 (centres undefined) = 128

# lookup: MIC of COc1c(N2CCN(C/C(C)=N/NC(=O)c3ccncc3)C(C)C2)c(F)cc2c(=O)c(C(=O)O)cn(C3CC3)c12 (centres undefined)
32

----------
system: Pseudomonas aeruginosa; test: Antibacterial activity against Pseudomonas aeruginosa 09-32 after 18 to 24 hrs by NCCLS M100-S11 two fold serial dilution method; format: functional
Categories are assigned from the measured MIC using these intervals: lower range = under 0.5 µg/mL, middle range = from 0.5 µg/mL up to 20 µg/mL, upper range = 20 µg/mL and over

Solved cases below.
* COc1c(N2CCN(CCC#N)C(C)C2)c(F)cc2c(=O)c(C(=O)O)cn(C3CC3)c12 (configuration not stated) | middle range
* COc1c(N2CCN(CC/C(C)=N/NC(N)=O)C(C)C2)c(F)cc2c(=O)c(C(=O)O)cn(C3CC3)c12 (configuration not stated) | lower range
* COc1c(N2CCN(C/C(C)=N/Nc3ccccc3)C(C)C2)c(F)cc2c(=O)c(C(=O)O)cn(C3CC3)c12 (configuration not stated) | lower range
* CCOC(=O)CCN1CCN(c2c(F)cc3c(=O)c(C(=O)O)cn(C4CC4)c3c2OC)CC1C (configuration not stated) | upper range
* COc1c(N2CCN(C/C(C)=N/O)C(C)C2)c(F)cc2c(=O)c(C(=O)O)cn(C3CC3)c12 (configuration not stated) | upper range

Please classify: COc1c(N2CCN(CC(C)=O)C(C)C2)c(F)cc2c(=O)c(C(=O)O)cn(C3CC3)c12 (configuration not stated)
middle range

Another molecule to check: COc1c(N2CCN(O)C(C)C2)c(F)cc2c(=O)c(C(=O)O)cn(C3CC3)c12 (configuration not stated)
middle range

And COC(=O)CCN1CCN(c2c(F)cc3c(=O)c(C(=O)O)cn(C4CC4)c3c2OC)CC1C (configuration not stated) ?
upper range

Next molecule: C[C@H]1COc2c(N3CCN(C)CC3)c(F)cc3c(=O)c(C(=O)O)cn1c23.C[C@H]1COc2c(N3CCN(C)CC3)c(F)cc3c(=O)c(C(=O)O)cn1c23.O [LEVOFLOXACIN]
middle range

And what about the molecule CCO/N=C(\C)CCN1CCN(c2c(F)cc3c(=O)c(C(=O)O)cn(C4CC4)c3c2OC)CC1C (configuration not stated) ?
upper range

----------
assay: Cytotoxicity against african green monkey Vero cells after 72 hrs by MTT assay; format: cell-based; settings: chlorocebus sabaeus
Binary label based on CC50 at 72 h with cut-off 30 µg/mL: below gives true (1), not below gives false (0).

- COc1c(N2CCN(CC/C(C)=N/NC(N)=O)C(C)C2)c(F)cc2c(=O)c(C(=O)O)cn(C3CC3)c12 (centres undefined): false (0)
- COC(=O)CN1CCN(c2c(F)cc3c(=O)c(C(=O)O)cn(C4CC4)c3c2OC)CC1C (centres undefined): false (0)
- COc1c(N2CCN(CC#N)C(C)C2)c(F)cc2c(=O)c(C(=O)O)cn(C3CC3)c12 (centres undefined): false (0)

Strictly below 30 µg/mL in CC50 at 72 h? COc1c(N2CCN(CCC(C)=O)C(C)C2)c(F)cc2c(=O)c(C(=O)O)cn(C3CC3)c12 (centres undefined)
true (1)

Proceed to COc1c(N2CCN(CC/C(C)=N/Nc3ccccc3)C(C)C2)c(F)cc2c(=O)c(C(=O)O)cn(C3CC3)c12 (centres undefined)
false (0)

// query: COc1c(N2CCN(CC/C(C)=N/O)C(C)C2)c(F)cc2c(=O)c(C(=O)O)cn(C3CC3)c12 (centres undefined)
false (0)

Do the same for COc1c(N2CCN(O)C(C)C2)c(F)cc2c(=O)c(C(=O)O)cn(C3CC3)c12 (centres undefined) please
true (1)

Also check CO/N=C(\C)CN1CCN(c2c(F)cc3c(=O)c(C(=O)O)cn(C4CC4)c3c2OC)CC1C (centres undefined)
false (0)

Okay, and CCO/N=C(\C)CN1CCN(c2c(F)cc3c(=O)c(C(=O)O)cn(C4CC4)c3c2OC)CC1C (centres undefined) ?
false (0)

----------
test system: Streptococcus pneumoniae; assay: Antibacterial activity against Streptococcus pneumoniae 08-2 after 18 to 24 hrs by NCCLS M100-S11 two fold serial dilution method; type: functional
Reported MIC values for a set of compounds
Response body: numeric value in µg/mL, unit text excluded.

Example entries begin here.
* COc1c(N2CCN(CC/C(C)=N/NC(N)=O)C(C)C2)c(F)cc2c(=O)c(C(=O)O)cn(C3CC3)c12 (centres undefined) | 8
* COc1c(N2CCNC(C)C2)c(F)cc2c(=O)c(C(=O)O)cn(C3CC3)c12 (centres undefined) | 4
* COc1c(N2CCN(CCC(C)=O)C(C)C2)c(F)cc2c(=O)c(C(=O)O)cn(C3CC3)c12 (centres undefined) | 4

Find the recorded MIC belonging to COc1c(N2CCN(CCC#N)C(C)C2)c(F)cc2c(=O)c(C(=O)O)cn(C3CC3)c12 (centres undefined) and report it.
32

Please give the result for COc1c(N2CCN(C/C(C)=N/NC(N)=O)C(C)C2)c(F)cc2c(=O)c(C(=O)O)cn(C3CC3)c12 (centres undefined) too.
64

----------
Here, each record is paired with measured log10 MIC data.
system: Staphylococcus epidermidis; assay: Antibacterial activity against methicillin-sensitive Staphylococcus epidermidis 09-6 after 18 to 24 hrs by NCCLS M100-S11 two fold serial dilution method; assay type: functional
Kindly note that the scale is log10 and the underlying MIC is in µg/mL.

Consider the compound shown here: CO/N=C(\C)CCN1CCN(c2c(F)cc3c(=O)c(C(=O)O)cn(C4CC4)c3c2OC)CC1C (stereo unspecified) What is its recorded log10 MIC?
0.00

Ok, now C[C@H]1COc2c(N3CCN(C)CC3)c(F)cc3c(=O)c(C(=O)O)cn1c23.C[C@H]1COc2c(N3CCN(C)CC3)c(F)cc3c(=O)c(C(=O)O)cn1c23.O [LEVOFLOXACIN]
0.30

Please answer likewise for COc1c(N2CCN(C/C(C)=N/NC(=O)c3ccncc3)C(C)C2)c(F)cc2c(=O)c(C(=O)O)cn(C3CC3)c12 (stereo unspecified)
-0.60

For COC(=O)CN1CCN(c2c(F)cc3c(=O)c(C(=O)O)cn(C4CC4)c3c2OC)CC1C (stereo unspecified) then?
1.51

Do the same for CCO/N=C(\C)CCN1CCN(c2c(F)cc3c(=O)c(C(=O)O)cn(C4CC4)c3c2OC)CC1C (stereo unspecified) please
-0.30

Record: COc1c(N2CCN(O)C(C)C2)c(F)cc2c(=O)c(C(=O)O)cn(C3CC3)c12 (stereo unspecified)
-0.60

----------
system: Pseudomonas aeruginosa; experiment: Antibacterial activity against Pseudomonas aeruginosa ATCC 27853 after 18 to 24 hrs by NCCLS M100-S11 two fold serial dilution method; type: functional
Values of MIC strictly less than 30 µg/mL map to label 1, and values of at least 30 µg/mL map to label 0.

• COc1c(N2CCN(C/C(C)=N/NC(=O)c3ccncc3)C(C)C2)c(F)cc2c(=O)c(C(=O)O)cn(C3CC3)c12 (configuration not stated) = label 1
• CCO/N=C(\C)CN1CCN(c2c(F)cc3c(=O)c(C(=O)O)cn(C4CC4)c3c2OC)CC1C (configuration not stated) = label 0
• CO/N=C(\C)CCN1CCN(c2c(F)cc3c(=O)c(C(=O)O)cn(C4CC4)c3c2OC)CC1C (configuration not stated) = label 0
• CCOC(=O)CCN1CCN(c2c(F)cc3c(=O)c(C(=O)O)cn(C4CC4)c3c2OC)CC1C (configuration not stated) = label 0
• COc1c(N2CCN(CC/C(C)=N/O)C(C)C2)c(F)cc2c(=O)c(C(=O)O)cn(C3CC3)c12 (configuration not stated) = label 1
• CCOC(=O)CN1CCN(c2c(F)cc3c(=O)c(C(=O)O)cn(C4CC4)c3c2OC)CC1C (configuration not stated) = label 0
• COc1c(N2CCN(CC/C(C)=N/Nc3ccccc3)C(C)C2)c(F)cc2c(=O)c(C(=O)O)cn(C3CC3)c12 (configuration not stated) = label 1
• COc1c(N2CCN(CCC#N)C(C)C2)c(F)cc2c(=O)c(C(=O)O)cn(C3CC3)c12 (configuration not stated) = label 1
• CO/N=C(\C)CN1CCN(c2c(F)cc3c(=O)c(C(=O)O)cn(C4CC4)c3c2OC)CC1C (configuration not stated) = label 0
• COc1c(N2CCN(CCC(C)=O)C(C)C2)c(F)cc2c(=O)c(C(=O)O)cn(C3CC3)c12 (configuration not stated) = label 1

Record COc1c(N2CCN(C/C(C)=N/O)C(C)C2)c(F)cc2c(=O)c(C(=O)O)cn(C3CC3)c12 (configuration not stated) : is its MIC strictly below 30 µg/mL?
label 0

Subsequent entry: COC(=O)CN1CCN(c2c(F)cc3c(=O)c(C(=O)O)cn(C4CC4)c3c2OC)CC1C (configuration not stated)
label 0

Same thing, different compound: COc1c(N2CCN(C/C(C)=N/NC(C)=O)C(C)C2)c(F)cc2c(=O)c(C(=O)O)cn(C3CC3)c12 (configuration not stated)
label 1

Values from ChEMBL document CHEMBL1817648
